Attribution: patent US4581359A

# Test Description: Literature: pharmacokinetics of dyphylline and related derivatives in humans
# Experimental Parameters: human, in vivo, 10 mg/kg, 10 mg/kg alcoholic solution with glycerol-guaiacolate solution; from Simons et al.; read-out: Total Vd
Measured Parameter: Vd (L/kg)
Give just the numeric value; L/kg need not be written.

q: Any idea what Vd was measured for Cn1c(=O)c2c(ncn2CC(O)CO)n(C)c1=O (stereo not shown) [dyphylline, dihydroxypropyl theophylline] ?
a: 0.77

====

# Test Description: Dyphylline intravenous infusion in rabbits: blood concentration, pharmacokinetics, toxicity (Example 1)
# Type: in vivo, female New Zealand White rabbits
# Experimental Parameters: rabbit, blood, iv, 250 mg, 15 minutes, three rabbits; read-out: blood concentration when the infusion was stopped
Measured Parameter: concentration at 0.25 h

q: Any idea what concentration at 0.25 h was measured for Cn1c(=O)c2c(ncn2CC(O)CO)n(C)c1=O (stereo not shown) [dyphylline, dihydroxypropyl theophylline] ?
a: 80 to 112 µg/mL

====

# Test Description: Dyphylline intravenous infusion in rabbits: blood concentration, pharmacokinetics, toxicity (Example 1)
# Format: in vivo, female New Zealand White rabbits
# Experimental Parameters: rabbit, blood, iv, 250 mg, 250.0 mg/rabbit over 15 minutes, alone; rabbits 1-3, mean; read-out: Vd1
Measured Parameter: Vd (L/kg)
Give just the numeric value; L/kg need not be written.

q: Any idea what Vd was measured for Cn1c(=O)c2c(ncn2CC(O)CO)n(C)c1=O (stereo not shown) [dyphylline, dihydroxypropyl theophylline] ?
a: 0.895

====

# Test Description: Dyphylline 20 min intravenous infusion in two healthy male subjects: pharmacokinetics, blood pressure, pulse (Example 2)
# Format: in vivo, human
# Experimental Parameters: human, in vivo, iv, 1000 mg, two subjects; read-out: total volume of distribution, average
Measured Parameter: Vd

q: Any idea what Vd was measured for Cn1c(=O)c2c(ncn2CC(O)CO)n(C)c1=O (stereo not shown) [dyphylline, dihydroxypropyl theophylline] ?
a: ~0.8 L/kg

====

# Test Description: in vivo
# Experimental Parameters: rabbit, iv, 40 mg/kg, Vc
Measured Parameter: Vd
Please append the unit to your numeric answer.

q: Any idea what Vd was measured for `Cn1c(=O)c2[nH]cnc2n(C)c1=O` ?
a: 0.151 L/kg
